This collection of values is drawn from the COVID Moonshot data (paper PMC7615835).

Some compounds, each annotated with its measured pIC50.
Target: UniProtKB P0DTD1
pIC50: −log10 of the molar value.
observed property: pIC50

In [3]: df
Out[3]:
                                   compound  observed_property  relation  value_observed
0  CCNC(=O)c1ccc(N(C(=O)c2cocn2)C(C(=O)NCCc2cccc(F)c2)c2cccnc2)cc1 (stereo not given)              pIC50         <            4.00
1    O=C(Nc1cncc2ccccc12)N1CCOc2ccc(Cl)cc21              pIC50         =            4.94
2           O=C(Cc1ccccc1Cl)Nc1cncc2ccccc12              pIC50         <            4.00
3  O=C(NCCc1cccc(F)c1)C(c1cccnc1)N(C(=O)c1cocn1)c1ccc(C2(O)COC2)cc1 (stereo not given)              pIC50         <            4.00
4  CN(C)C(=O)C[C@@]1(C(=O)Nc2cncc3ccccc23)CCOc2ccc(Cl)cc21 (stereo in doubt)              pIC50         =            4.69
